So I've got a bunch of molecules here, and I need their cytotoxicity at 70.5 h values.
Assay: Human HepG2 cell viability assay in 384 well format
Assay type: toxicity, cell-based
Parameters: dose 125 nL, time 70.5 hour; concentration not given beside the values
Conditions: HepG2 cells, read-out: Inhibition

Identify measured cytotoxicity at 70.5 h associated with Cn1cc(C2CCCN2C(=O)c2cnc(C3CC3)s2)cn1 (stereo not given)
-5%

Identify measured cytotoxicity at 70.5 h associated with COC(C(=O)N1CCCN(Cc2cscn2)CC1)c1ccccc1 (stereo not given)
12.8%

Identify measured cytotoxicity at 70.5 h associated with O=C(CCN1CCCCC1c1cc2ccccc2[nH]1)N1CCOCC1 (stereo not given)
8.08%

Identify measured cytotoxicity at 70.5 h associated with Cc1nc(C2CCCN2C(=O)c2cc3c(s2)CCC3)no1 (stereo not given)
-6.34%

Identify measured cytotoxicity at 70.5 h associated with CCc1ncc(CNCc2cccnc2N(C)C)cn1
-12.1%

Identify measured cytotoxicity at 70.5 h associated with Cc1ccc(CN2CCC(NC(=O)c3scnc3C)CC2)cc1
3.8%

Identify measured cytotoxicity at 70.5 h associated with CSc1ncc(Cl)c(C(=O)NC(Cc2ccccc2)C(=O)O)n1 (stereo not given)
15%

Identify measured cytotoxicity at 70.5 h associated with O=C(O)c1ccccc1-c1ccc(CN2CCOCC2)cn1
-7.9%

Identify measured cytotoxicity at 70.5 h associated with Cc1ccc(C(=O)NC2CCN(C(=O)Nc3ccccn3)CC2)s1
11.7%

Identify measured cytotoxicity at 70.5 h associated with CC(C)C(=O)NCc1ccc(-n2cncn2)nc1
-4.44%

Identify measured cytotoxicity at 70.5 h associated with COC(=O)c1ccc(N2CCN(C(=O)c3ccco3)C(C)C2)cc1 (stereo not given)
-3.57%

Identify measured cytotoxicity at 70.5 h associated with CN1CCN(C(=O)c2cnsn2)c2ccc(F)cc21
-10.4%

Identify measured cytotoxicity at 70.5 h associated with Cc1nc(C2CCCN2C(=O)CCCn2cccn2)no1 (stereo not given)
3.27%

Identify measured cytotoxicity at 70.5 h associated with Cc1ccc(N2CCC(c3[nH]ncc3Cc3ccccc3)CC2)nn1
-10%

Identify measured cytotoxicity at 70.5 h associated with O=C(COc1cc(Cl)cc(Cl)c1)NCc1nncn1C1CC1
-8.34%

Identify measured cytotoxicity at 70.5 h associated with O=C(NC1CCC(C(=O)N2CCSCC2)CC1)N1CCC1 (stereo not given)
-6.98%

Identify measured cytotoxicity at 70.5 h associated with CN(C)CCSc1ccc(NC(=O)c2nccn3ccnc23)cc1
-2.14%

Identify measured cytotoxicity at 70.5 h associated with COCCc1noc(CN2CCCC2c2noc(C3CC3)n2)n1 (stereo not given)
-1.05%

Identify measured cytotoxicity at 70.5 h associated with Cc1ccc(N2CCCC(NCCCS(C)(=O)=O)C2)nn1 (stereo not given)
-7.73%

Identify measured cytotoxicity at 70.5 h associated with O=C(NCc1ccnc(OCC2CC2)c1)C1Cc2ccccc2O1 (stereo not given)
-4.48%

Identify measured cytotoxicity at 70.5 h associated with Cc1ncsc1CN1C[C@H](NC(=O)C2CCOCC2)[C@@H](C(C)C)C1
-14.2%

Identify measured cytotoxicity at 70.5 h associated with Cc1ncccc1O[C@H]1CCN(C(=O)c2cccs2)CC[C@@H]1O
-14.1%

Identify measured cytotoxicity at 70.5 h associated with CC(CN1CCCCCC1)NCc1cc(-c2ccco2)on1 (stereo not given)
-12.2%

Identify measured cytotoxicity at 70.5 h associated with O=C(O)[C@@H]1CN(Cc2cc3c(cc2Cl)OCO3)C[C@H]1C1CC1
-1.73%

Identify measured cytotoxicity at 70.5 h associated with CCn1nnc(NCc2ccc(-c3ccc(Br)cc3)o2)n1
-7.12%

Origin of the recorded values: ChEMBL document CHEMBL3507680
